# TARGET_OF_ASSAY: T1, human IL-11 (human, UniProt P20809 22-199)
# T1 sequence: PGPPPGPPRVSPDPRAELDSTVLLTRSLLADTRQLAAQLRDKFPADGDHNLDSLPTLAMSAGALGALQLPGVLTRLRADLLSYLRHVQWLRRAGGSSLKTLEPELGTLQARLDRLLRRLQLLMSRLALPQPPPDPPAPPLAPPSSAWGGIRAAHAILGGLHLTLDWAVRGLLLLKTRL
# MEASUREMENT_NOTES: cell-based or functional assay
ASSAY_READOUT: RGA IC50 (nM)
Entry rule: numbers only, all in nM.

• TPP-26331 (antibody, V domains shown) VH: EVQLLESGGGLVQPGGSLRLSCAASGFTFSSYGGHWVRQAPGKGLEWVSVISYDGSYKYYADSVKGRFTISRDNSKNTLYLQMNSLRAEDTAVYYCAAGVPDYWGQGTLVTVSS VL: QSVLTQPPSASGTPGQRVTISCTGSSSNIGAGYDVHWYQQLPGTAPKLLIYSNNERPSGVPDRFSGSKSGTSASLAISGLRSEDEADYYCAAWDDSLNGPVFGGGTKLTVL = 5.4

Reported RGA IC50 for TPP-26312 (antibody, V domains shown) VH: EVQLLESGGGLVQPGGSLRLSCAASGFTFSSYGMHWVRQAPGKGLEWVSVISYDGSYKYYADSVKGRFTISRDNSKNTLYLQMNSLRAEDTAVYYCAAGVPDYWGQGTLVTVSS VL: QSVLTQPPSASGTPGQRVTISCTGSSSNIGAGLDVHWYQQLPGTAPKLLIYSNNERPSGVPDRFSGSKSGTSASLAISGLRSEDEADYYCAAWDDSLNGPVFGGGTKLTVL : what is it?
3.8

meta.source: patent US20240317847A1
